experiment: Solubility in Swiss rapeseed oil at room temperature by incremental addition of oil
Assay type: physicochemical
test settings: Swiss rapeseed oil, room temperature
measurement kind: Solubility (in words)

CC/C=C\C/C=C\C/C=C\C/C=C\C/C=C\CCCC(=O)OCC [EPA ethyl ester 90%, EPA ethyl ester]	miscible
CC[C@H](/C=C/[C@@H](C)[C@H]1CC[C@H]2[C@@H]3CC=C4C[C@@H](O)CC[C@]4(C)[C@H]3CC[C@]12C)C(C)C [stigmasterol]	insoluble
CC/C=C\C/C=C\C/C=C\C/C=C\C/C=C\C/C=C\CCC(=O)O[C@H]1CC[C@@]2(C)C(=CC[C@H]3[C@@H]4CC[C@H]([C@H](C)/C=C/[C@@H](CC)C(C)C)[C@@]4(C)CC[C@@H]32)C1 [stigmasterol docosahexaenoate]	miscible
CCC=CCC=CCC=CCC=CCC=CCCCC(=O)OC1CCC2(C)C(=CCC3C2CCC2(C)C(C(C)C=CC(CC)C(C)C)CCC32)C1 (centres unmarked) [stigmasterol eicosapentenoate, Stigmasterol eicosapenatenoate]	miscible

Lab note: next compound to report on.
Query: Form field: reported Solubility (in words) of CC[C@H](CC[C@@H](C)[C@H]1CC[C@H]2[C@@H]3CC[C@H]4C[C@@H](O)CC[C@]4(C)[C@H]3CC[C@]12C)C(C)C [stigmastanol]
Reply: insoluble
